TARGET: E. coli GroEL/ES (Escherichia coli)
PROTOCOL_TEXT: Inhibition of Escherichia coli GroEL/GroES-ATPase activity expressed in Escherichia coli DH5alpha/BL21 (DE3) assessed as inhibition of denatured MDH refolding preincubated for 10 mins followed by ATP addition measured after 2 hrs by fluorescence based assay
EXPERIMENTAL_ENDPOINT: IC50 (µM)
Please give a number only; it is taken to be in µM.

Examples with their reported IC50 follow.
CCOc1ccc(N2C(=O)NC(=O)/C(=C/c3ccc(O)c(O)c3)C2=O)cc1 217
O=C(O)c1ccc(-c2nc(-c3ccc(-c4ccc(-c5nc(-c6ccc(C(=O)O)cc6)[nH]c5-c5ccccc5)cc4)cc3)c(-c3ccccc3)[nH]2)cc1 25
Nc1ccc(Nc2nc(-c3ccc(O)c(O)c3)cs2)cc1 23
CNC(=O)Oc1c(Br)cc2sc(=O)oc2c1Br 236
Cc1ccc(S(=O)(=O)Nc2ccc(-c3nc4ccc(NS(=O)(=O)c5ccc(C)cc5)cc4[nH]3)cc2)cc1 0.06

Below: the item to evaluate.
Prompt: Reported IC50, molecule O=C(/C=C/c1ccco1)c1ccc(NC(=O)c2cccs2)cc1 : ____
Completion: 157

* * *

TARGET: E. coli GroEL/ES (Escherichia coli)
PROTOCOL_TEXT: Inhibition of Escherichia coli GroEL/GroES-ATPase activity expressed in Escherichia coli DH5alpha/BL21 (DE3) assessed as inhibition of denatured MDH refolding preincubated for 10 mins followed by ATP addition measured after 2 hrs by fluorescence based assay
Entries annotated with measured IC50

Examples with their reported IC50 follow.
Cn1c(=O)c(C(=O)Nc2ccncc2)c(O)c2ccccc21 > 250 µM
Cc1ccc(/C=C2/SC(=S)N(c3ccc(C(=O)O)c(O)c3)C2=O)o1 48 µM

Below: the item to evaluate.
Prompt: Which IC50 is reported with E. coli GroEL/ES (Escherichia coli) for this entry: O=C(/C=C/c1cccc([N+](=O)[O-])c1)c1ccc(NC(=O)c2ccco2)cc1 ?
Completion: > 250 µM

* * *

TARGET: E. coli GroEL/ES (Escherichia coli, UniProt P0A6F5)
Sequence (P0A6F5 whole entry, looked up): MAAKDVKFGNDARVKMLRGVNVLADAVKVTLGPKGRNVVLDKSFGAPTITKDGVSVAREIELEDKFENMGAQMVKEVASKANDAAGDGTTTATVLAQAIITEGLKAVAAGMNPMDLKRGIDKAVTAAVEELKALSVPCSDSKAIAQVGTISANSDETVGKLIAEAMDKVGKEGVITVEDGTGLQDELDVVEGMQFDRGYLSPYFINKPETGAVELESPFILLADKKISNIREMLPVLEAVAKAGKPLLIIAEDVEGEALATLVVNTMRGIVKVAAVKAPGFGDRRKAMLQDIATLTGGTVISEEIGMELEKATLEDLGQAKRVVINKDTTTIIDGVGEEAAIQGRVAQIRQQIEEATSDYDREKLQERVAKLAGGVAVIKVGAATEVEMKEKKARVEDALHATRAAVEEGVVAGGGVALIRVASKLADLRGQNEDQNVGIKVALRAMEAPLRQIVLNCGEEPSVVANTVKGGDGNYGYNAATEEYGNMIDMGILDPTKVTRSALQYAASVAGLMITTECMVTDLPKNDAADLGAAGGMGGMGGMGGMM
PROTOCOL_TEXT: Inhibition of Escherichia coli GroEL/GroES expressed in Escherichia coli DH5alpha/BL21 (DE3) assessed as inhibition of denatured MDH refolding preincubated for 10 mins followed by ATP addition measured after 2 hrs by fluorescence based assay
Entries annotated with measured pIC50
The quantity pIC50 is defined as the negative base-10 logarithm of the molar concentration.

Examples with their reported pIC50 follow.
COc1ccc(C(=O)N/N=C/c2ccc(O)c3ncccc23)cc1 4.15
O=C1NC(=S)N(Cc2ccco2)C(=O)/C1=C\c1ccc(-c2ccc([N+](=O)[O-])cc2)o1 6.15
O=C(NCCO)Nc1ccc2nc(-c3ccco3)c(-c3ccco3)nc2c1 4.64
COc1cccc(/C=C2/SC(=S)N(CCC(=O)Nc3ccc(O)cc3)C2=O)c1 4.48
Cc1ccc(S(=O)(=O)Nc2ccc(-c3nc4ccc(NS(=O)(=O)c5ccc(C)cc5)cc4[nH]3)cc2)cc1 6.96

Below: the item to evaluate.
Prompt: Which pIC50 is reported with E. coli GroEL/ES (Escherichia coli, UniProt P0A6F5) for this entry: O=c1c([N+](=O)[O-])c(Cl)c2ccccc2n1Cc1ccccc1 ?
Completion: 5.06
